Known fold change (FC) of a selection of compounds
- SUBJECT_OF_TEST: Cell division inhibitor SulA (Escherichia coli K-12) (UniProt P0AFZ5)
- Sequence (P0AFZ5 whole entry): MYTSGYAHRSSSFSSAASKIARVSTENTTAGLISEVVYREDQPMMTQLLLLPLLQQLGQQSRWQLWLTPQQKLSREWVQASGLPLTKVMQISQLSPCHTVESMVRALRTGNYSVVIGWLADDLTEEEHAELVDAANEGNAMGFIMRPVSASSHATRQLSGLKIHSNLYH
- TEST_METHOD_NOTES: Induction of Escherichia coli K12 MG1655 sulA promotor measured at 30 mins interval for 20 hrs by fluorescence assay relative to control
- EXPERIMENTAL_SETUP: Escherichia coli str. K-12 substr. MG1655

Here are 3 compounds together with their reported answers.
O=C(O)c1cn(C2CC2)c2cc(N3CCNCC3)c(F)cc2c1=O; 17 to 41
COc1c(N2C[C@@H]3CCCN[C@@H]3C2)c(F)cc2c(=O)c(C(=O)O)cn(C3CC3)c12; 17 to 41
COc1cc2c(cc1OCCCC(=O)Nc1cc(C(=O)Nc3ccc4oc(C(=O)N5CCSCC5)cc4c3)n(C)c1)N=C[C@@H]1CCCN1C2=O; 6 to 7

Please find the next compound below.
Quick one: fold change (FC) of `CO[C@@H]1[C@@H](OC(N)=O)[C@@H](O)[C@H](Oc2ccc3c(O)c(NC(=O)c4ccc(O)c(CC=C(C)C)c4)c(=O)oc3c2C)OC1(C)C` ?
17 to 41

====

- System: Enterococcus faecalis
- TEST_METHOD_NOTES: Antibacterial activity against vancomycin sensitive Enterococcus faecalis NCTC 775 by microdilution broth method
- Type: functional
OUTCOME_MEASURE: MIC

Past entries and their recorded results:
COC(=O)c1cc(NC(=O)c2cc(NC(=O)CCCOc3cc4c(cc3OC)C(=O)N3CCC[C@H]3C=N4)cn2C)cn1C; 1 µg/mL
COc1cc2c(cc1OCCCC(=O)Nc1cc(C(=O)Nc3ccc4oc(C(=O)N5CCOCC5)cc4c3)n(C)c1)N=C[C@@H]1CCCN1C2=O; ≤ 0.125 µg/mL
COC(=O)c1cc(NC(=O)c2cc3cc(NC(=O)c4cc(NC(=O)CCCOc5cc6c(cc5OC)C(=O)N5CCC[C@H]5C=N6)cn4C)ccc3s2)cn1C; ≤ 0.125 µg/mL

What does the data say about its MIC? Entry: `COc1cc2c(cc1OCCCC(=O)Nc1cc(C(=O)Nc3ccc4oc(C(=O)N(C)C)cc4c3)n(C)c1)N=C[C@@H]1CCCN1C2=O`
≤ 0.125 µg/mL

So what's the measured MIC for this one? `COc1cc2c(cc1OCCCC(=O)Nc1cc(C(=O)Nc3ccc(-c4cc(C(=O)N5CCOCC5)n(C)c4)cc3)n(C)c1)N=C[C@@H]1CCCN1C2=O`
≤ 0.125 µg/mL

Any idea what MIC was measured for `COc1cc2c(cc1OCCCC(=O)Nc1cc(C(=O)Nc3ccc(-c4cc(C(=O)N5CCCCC5)n(C)c4)cc3)n(C)c1)N=C[C@@H]1CCCN1C2=O` ?
0.125 µg/mL

====

- SUBJECT_OF_TEST: Cell division inhibitor SulA (Escherichia coli K-12)
- TEST_METHOD_NOTES: Induction of Escherichia coli K12 MG1655 sulA promotor measured at 30 mins interval for 20 hrs by fluorescence assay relative to control
- EXPERIMENTAL_SETUP: Escherichia coli str. K-12 substr. MG1655
OUTCOME_MEASURE: fold change (FC)

CCn1cc(C(=O)O)c(=O)c2cc(F)c(N3CCNCC3)cc21; 17 to 41
C[C@H]1COc2c(N3CCN(C)CC3)c(F)cc3c(=O)c(C(=O)O)cn1c23; 17 to 41

Query the reported fold change (FC) for Cell division inhibitor SulA (Escherichia coli K-12); item: `COc1cc2c(cc1OCCCC(=O)Nc1cc(C(=O)Nc3ccc4sc(C(=O)N(C)C)cc4c3)n(C)c1)N=C[C@@H]1CCCN1C2=O`
6 to 7

====

- System: Pseudomonas aeruginosa
- TEST_METHOD_NOTES: Antimicrobial activity against Pseudomonas aeruginosa PAO1 by microdilution broth method
- Format: functional
OUTCOME_MEASURE: MIC

Record excerpt, results attached:
COc1cc2c(cc1OCCCC(=O)Nc1cc(C(=O)Nc3ccc(-c4cc(C(=O)N(C)C)n(C)c4)cc3)n(C)c1)N=C[C@@H]1CCCN1C2=O; 128 µg/mL
COc1cc2c(cc1OCCCC(=O)Nc1cc(C(=O)Nc3ccc4sc(C(=O)N(C)C)cc4c3)n(C)c1)N=C[C@@H]1CCCN1C2=O; > 32 µg/mL
COc1cc2c(cc1OCCCC(=O)Nc1cc(C(=O)Nc3ccc(-c4cc(C(=O)N5CCOCC5)n(C)c4)cc3)n(C)c1)N=C[C@@H]1CCCN1C2=O; > 128 µg/mL
CCN(CC)C(=O)c1cc2cc(NC(=O)c3cc(NC(=O)CCCOc4cc5c(cc4OC)C(=O)N4CCC[C@H]4C=N5)cn3C)ccc2o1; 128 µg/mL
COc1cc2c(cc1OCCCC(=O)Nc1cc(C(=O)Nc3ccc4sc(C(=O)N5CCOCC5)cc4c3)n(C)c1)N=C[C@@H]1CCCN1C2=O; 64 µg/mL
COc1cc2c(cc1OCCCC(=O)Nc1cc(C(=O)Nc3ccc4oc(C(=O)N5CCSCC5)cc4c3)n(C)c1)N=C[C@@H]1CCCN1C2=O; 32 to 128 µg/mL
COc1cc2c(cc1OCCCC(=O)Nc1cc(C(=O)Nc3ccc4oc(C(=O)N(C)C)cc4c3)n(C)c1)N=C[C@@H]1CCCN1C2=O; 128 µg/mL
COc1cc2c(cc1OCCCC(=O)Nc1cc(C(=O)Nc3ccc4oc(C(=O)N5CCOCC5)cc4c3)n(C)c1)N=C[C@@H]1CCCN1C2=O; > 128 µg/mL
CCN(CC)C(=O)c1cc(-c2ccc(NC(=O)c3cc(NC(=O)CCCOc4cc5c(cc4OC)C(=O)N4CCC[C@H]4C=N5)cn3C)cc2)cn1C; > 128 µg/mL
COc1cc2c(cc1OCCCC(=O)Nc1cc(C(=O)Nc3ccc(-c4cc(C(=O)N5CCCCC5)n(C)c4)cc3)n(C)c1)N=C[C@@H]1CCCN1C2=O; > 128 µg/mL

// returns reported MIC for input `COC(=O)c1cc(NC(=O)c2cc3cc(NC(=O)c4cc(NC(=O)CCCOc5cc6c(cc5OC)C(=O)N5CCC[C@H]5C=N6)cn4C)ccc3s2)cn1C`
> 128 µg/mL

Which MIC reading was recorded for the compound `COC(=O)c1cc(NC(=O)c2cc(NC(=O)CCCOc3cc4c(cc3OC)C(=O)N3CCC[C@H]3C=N4)cn2C)cn1C` ?
128 µg/mL

Would you mind telling me what MIC value was observed for `COc1cc2c(cc1OCCCC(=O)Nc1cc(C(=O)Nc3ccc4sc(C(=O)N5CCSCC5)cc4c3)n(C)c1)N=C[C@@H]1CCCN1C2=O` ?
64 µg/mL

Which MIC reading was recorded for the compound `COc1cc2c(cc1OCCCC(=O)Nc1cc(C(=O)Nc3ccc(-c4cc(C(=O)N5CCSCC5)n(C)c4)cc3)n(C)c1)N=C[C@@H]1CCCN1C2=O` ?
> 32 µg/mL

====

- Tested on: Enterococcus faecalis
- TEST_METHOD_NOTES: Antibacterial activity against vancomycin resistant Enterococcus faecalis NCTC 12201 by microdilution broth method
- Type: functional
OUTCOME_MEASURE: MIC

// solved cases for MIC follow
COc1cc2c(cc1OCCCC(=O)Nc1cc(C(=O)Nc3ccc4oc(C(=O)N5CCCCC5)cc4c3)n(C)c1)N=C[C@@H]1CCCN1C2=O; ≤ 0.125 µg/mL
COc1cc2c(cc1OCCCC(=O)Nc1cc(C(=O)Nc3ccc4oc(C(=O)N5CCOCC5)cc4c3)n(C)c1)N=C[C@@H]1CCCN1C2=O; ≤ 0.125 µg/mL
CCN(CC)C(=O)c1cc2cc(NC(=O)c3cc(NC(=O)CCCOc4cc5c(cc4OC)C(=O)N4CCC[C@H]4C=N5)cn3C)ccc2s1; 0.5 µg/mL

What MIC value was documented for this compound, `COc1cc2c(cc1OCCCC(=O)Nc1cc(C(=O)Nc3ccc4oc(C(=O)N(C)C)cc4c3)n(C)c1)N=C[C@@H]1CCCN1C2=O` ?
0.5 µg/mL

Find the recorded MIC belonging to `COC(=O)c1cc(NC(=O)c2cc3cc(NC(=O)c4cc(NC(=O)CCCOc5cc6c(cc5OC)C(=O)N5CCC[C@H]5C=N6)cn4C)ccc3s2)cn1C` and report it.
≤ 0.125 µg/mL

Which value of MIC has been reported for `COc1cc2c(cc1OCCCC(=O)Nc1cc(C(=O)Nc3ccc4sc(C(=O)N5CCOCC5)cc4c3)n(C)c1)N=C[C@@H]1CCCN1C2=O` in the records?
≤ 0.125 µg/mL

Entry `COc1cc2c(cc1OCCCC(=O)Nc1cc(C(=O)Nc3ccc(-c4cc(C(=O)N(C)C)n(C)c4)cc3)n(C)c1)N=C[C@@H]1CCCN1C2=O` : reported MIC = ?
≤ 0.125 µg/mL

What does the record list as MIC for `COc1cc2c(cc1OCCCC(=O)Nc1cc(C(=O)Nc3ccc(-c4cc(C(=O)N5CCCCC5)n(C)c4)cc3)n(C)c1)N=C[C@@H]1CCCN1C2=O` ?
≤ 0.03 µg/mL
